assay: Caco-2 assay (permeability PappAB, PappBA, efflux ratio); type: in vitro ADME; conditions: human, Caco-2; efflux ratio PappBA/PappAB; 10 μM test compound, pH 7.4; read-out: Caco ER
Provide the recorded efflux ratio at 90 min, 10 μM for the entries that follow.
Numbers only.

compound	efflux ratio at 90 min, 10 μM
C[C@H](Oc1cc(N2CC[C@H](N(C)C)C2)nc(-c2noc3c2CCC[C@@]32CCCc3sc(N)c(C#N)c32)n1)[C@@H]1C[C@@H](F)CN1C [II-15]	5.3

Please go through the list and note efflux ratio at 90 min, 10 μM for each compound.
1. C[C@H](Oc1cc(N2CCN(CCO)CC2)nc(-c2noc3c2CCC[C@@]32CCCc3sc(N)c(C#N)c32)n1)[C@@H]1CCCN1C [II-8]
2. C[C@H](Oc1cc(-n2nccc2-c2ccncc2)nc(-c2noc3c2CCC[C@@]32CCCc3sc(N)c(C#N)c32)n1)[C@@H]1CCCN1C [II-131]
3. C[C@H](Oc1cc(N2C[C@H](C)N[C@@H](C)C2)nc(-c2onc3c2CCC[C@@]32CCCc3sc(N)c(C#N)c32)n1)[C@@H]1CCCN1C [I-6]
4. C[C@H](Oc1cc(-c2cnn(C)n2)nc(-c2noc3c2CCC[C@@]32CCCc3sc(N)c(C#N)c32)n1)[C@@H]1CCCN1C [II-86]
5. C[C@H](Oc1cc(C2CCOCC2)nc(-c2noc3c2CCC[C@@]32CCCc3sc(N)c(C#N)c32)n1)[C@@H]1CCCN1C [II-76]
6. CC(C)N1CCCN(c2cc(-n3ccnc3)nc(-c3noc4c3CCC[C@@]43CCCc4sc(N)c(C#N)c43)n2)[C@@H](C)C1 [II-169]
7. C[C@H](Oc1cc(-n2cc(-c3cccnc3)nn2)nc(-c2noc3c2CCC[C@@]32CCCc3sc(N)c(C#N)c32)n1)[C@@H]1CCCN1C [II-123]

Outgoing:
12.7
0.9
15
0.8
3.7
9.6
4.6

Take each entry in turn and give its efflux ratio at 90 min, 10 μM.
1. C[C@H](O)Cn1ccc(-c2cc(O[C@@H](C)[C@@H]3CCCN3C)nc(-c3noc4c3CCC[C@@]43CCCc4sc(N)c(C#N)c43)n2)n1 [II-112]
2. C[C@H](Oc1cc(C2=CCNCC2)nc(-c2noc3c2CCC[C@@]32CCCc3sc(N)c(C#N)c32)n1)[C@@H]1CCCN1C [II-164]
3. COCc1cn(-c2cc(O[C@@H](C)[C@@H]3CCCN3C)nc(-c3noc4c3CCC[C@@]43CCCc4sc(N)c(C#N)c43)n2)nn1 [II-121]
4. C[C@H](Oc1cc(N2CCNC3(CC3)C2)nc(-c2onc3c2CCC[C@@]32CCCc3sc(N)c(C#N)c32)n1)[C@@H]1CCCN1C [I-5]
5. C[C@H](Oc1cc(-n2cc(C(=O)N(C)C)nn2)nc(-c2noc3c2CCC[C@@]32CCCc3sc(N)c(C#N)c32)n1)[C@@H]1CCCN1C [II-132]

Outgoing:
[5.6, 138, 3.7, 29, 4.9]
